- SUBJECT_OF_TEST: human 5-HT1a receptor (Homo sapiens)
- Construct: expressed in transfected cells
- Sequence (P08908 whole entry): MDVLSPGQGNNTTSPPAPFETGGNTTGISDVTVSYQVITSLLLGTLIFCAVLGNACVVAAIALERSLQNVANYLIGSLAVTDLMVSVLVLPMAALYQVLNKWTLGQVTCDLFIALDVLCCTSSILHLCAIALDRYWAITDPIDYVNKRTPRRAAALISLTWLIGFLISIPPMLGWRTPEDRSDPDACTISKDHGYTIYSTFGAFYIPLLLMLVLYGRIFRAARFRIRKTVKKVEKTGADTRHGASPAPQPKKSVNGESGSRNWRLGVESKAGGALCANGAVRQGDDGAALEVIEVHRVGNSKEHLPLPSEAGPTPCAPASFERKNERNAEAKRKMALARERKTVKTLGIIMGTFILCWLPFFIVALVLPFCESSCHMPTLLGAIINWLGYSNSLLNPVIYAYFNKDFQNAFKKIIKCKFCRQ
- METHOD_NOTES: [35S]GTPγS functional assay
- Type: biochemical
- EXPERIMENTAL_CONDITIONS: read-out: intrinsic activity [% rel. to serotonin]
- Method: Specific binding of [^35S]GTPγS is stimulated by activation of the stably expressed human 5-HT1a receptor in a dose-dependent way by agonists for this GPCR and is determined by measuring the radioactive label of the membrane. Non-linear regression analysis of the resulting dose-response curves yields the EC50 value in [nM] representing the half maximal concentration which is necessary to activate the receptor completely.
Consider the following molecules and their measured Emax readings.
// units = %; emit number, no label

INSERT INTO assay_data (molecule, experimental_readout, observed_value) VALUES
  ('CCCN(CCc1cccs1)[C@@H]1CCc2cccc(OC)c2C1 [Compound 2a]', 'Emax', 82);

[Q] Could you tell me which Emax is on file for CCCN(CCc1cccs1)C1CCc2cccc(O)c2C1 (stereo not shown) [Compound 1] ?
[A] 103

[Q] Next molecule up: CCCN(CCc1cccs1)[C@@H]1CCc2cccc(O)c2C1 [Compound 1a]
[A] 103

[Q] Can you check CCCN(CCc1cccs1)C1CCc2cccc(OC)c2C1 (stereo not shown) [Compound 2] next?
[A] 91
